Experiment: Antiplatelet aggregatory activity in pig […] assessed as inhibition of platelet-activating factor-induced platelet aggregation
Assay type: functional
Details: Sus scrofa
Square brackets hold non-standard residues; d marks the D form. Peptide text beside a SMILES is read from it. Tic = O=C(O)[C@@H]1Cc2ccccc2CN1
In this section we review reported pIC50 values for a set of compounds.
Please express pIC50 as -log10 of the molar concentration.

Data request, read-out pIC50, for NCCCC[C@H](N)C(=O)N1Cc2ccccc2C[C@H]1C(=O)O (H-Lys-[Tic]-OH) 6.33

Data request, read-out pIC50, for NC(=O)CC[C@H](N)C(=O)N1Cc2ccccc2C[C@H]1C(=O)O (H-Gln-[Tic]-OH) 6.41

Data request, read-out pIC50, for O=C(O)CC[C@H](NC(=O)[C@@H]1Cc2ccccc2CN1)C(=O)O (H-[Tic]-Glu-OH) 6.75

Data request, read-out pIC50, for O=C(O)[C@H](CS)NC(=O)[C@@H]1Cc2ccccc2CN1 (H-[Tic]-Cys-OH) 6.11

Data request, read-out pIC50, for C[C@H](NC(=O)[C@@H]1Cc2ccccc2CN1)C(=O)O (H-[Tic]-Ala-OH) 6.45

The origin of these recorded values is ChEMBL document CHEMBL1156036.
